# tested_target: Progesterone receptor (Homo sapiens)
# protocol_notes: Relative binding affinity against progesterone receptor at 0 degree Celsius determined in a competitive radiometric binding assay (R5020=100%).
Output 1 for records whose RBA is lower than 200, 0 for records at or above 200.

Reference set, count: 5
molecule	category
CC1(c2ccco2)O[C@@H]2CC3C4CCC5=CC(=O)CC[C@@H]5C4CC[C@]3(C)[C@]2(C(=O)CF)O1 (stereo partly drawn)	1
CC(=O)[C@H]1CC[C@H]2[C@@H]3CCC4=CC(=O)CC[C@]4(C)[C@H]3CC[C@]12C	1
CC1(c2ccc(F)cc2)O[C@@H]2CC3C4CCC5=CC(=O)CC[C@@H]5C4CC[C@]3(C)[C@]2(C(=O)CF)O1 (stereo partly drawn)	0
CC[C@@H]1C[C@H]2[C@@H]3CCC4=CC(=O)CC[C@@H]4[C@H]3CC[C@]2(C)[C@H]1C(=O)CF	0
C[C@@]1(c2ccc(F)cc2)O[C@@H]2CC3C4CCC5=CC(=O)CC[C@@H]5C4CC[C@]3(C)[C@]2(C(=O)CO)O1 (stereo partly drawn)	0

INPUT: Strictly below 200: is that where RBA of CC(=O)[C@@]12O[C@](C)(c3ccc(F)cc3)O[C@@H]1CC1C3CCC4=CC(=O)CC[C@]4(C)C3CC[C@@]12C (stereo partly drawn) sits?
OUTPUT: 1

INPUT: # check: RBA < 200 for "CCC(=O)[C@@]1(C)CC[C@H]2[C@@H]3CCC4=CC(=O)CCC4=C3CC[C@@]21C"
OUTPUT: 1

====

For each record, write down the corresponding Injected dose/g.
# Organism: Rattus norvegicus
# protocol_notes: Tissue biodistribution into estrogen-primed immature female rat blood at 1 hr time interval
# Assay type: ADME, organism-based
# test_settings: in vivo
Numbers only, in %.

Use the examples below as a reference point.
compound	Injected dose/g, %
CC1(c2ccco2)O[C@@H]2CC3C4CCC5=CC(=O)CC[C@@H]5C4CC[C@]3(C)[C@]2(C(=O)CF)O1 (stereo not given in full)	0.32
CC(=O)[C@@]12O[C@](C)(c3ccc(F)cc3)O[C@@H]1CC1C3CCC4=CC(=O)CC[C@]4(C)C3CC[C@@]12C (stereo not given in full)	0.47
C[C@@]1(c2ccc(F)cc2)O[C@@H]2CC3C4CCC5=CC(=O)CC[C@@H]5C4CC[C@]3(C)[C@]2(C(=O)CO)O1 (stereo not given in full)	0.26

Report Injected dose/g for each item below.
1. C[C@]12CCC3C(CCC4=CC(=O)CC[C@@H]43)C1C[C@H]1OC(c3ccco3)O[C@]12C(=O)CF (stereo not given in full)
2. CC[C@@H]1C[C@H]2[C@@H]3CCC4=CC(=O)CC[C@@H]4[C@H]3CC[C@]2(C)[C@H]1C(=O)CF

OUTPUT:
0.38
0.25

====

# Species on record: Rattus norvegicus
# protocol_notes: Tissue biodistribution into estrogen-primed immature female rat uterus/muscle at 1 hr time interval
# Format: ADME, organism-based
# test_settings: in vivo
Threshold check on Uterus to muscle uptake ratio: at or above 8% gives Condition met, strictly below gives Condition not met.

Reference set, count: 3
compound	category
CC[C@@H]1C[C@H]2[C@@H]3CCC4=CC(=O)CC[C@@H]4[C@H]3CC[C@]2(C)[C@H]1C(=O)CF	Condition met
C[C@]12CCC3C(CCC4=CC(=O)CC[C@@H]43)C1C[C@H]1OC(c3ccco3)O[C@]12C(=O)CF (stereo not given in full)	Condition met
CC(=O)[C@@]12O[C@](C)(c3ccc(F)cc3)O[C@@H]1CC1C3CCC4=CC(=O)CC[C@]4(C)C3CC[C@@]12C (stereo not given in full)	Condition not met

INPUT: Could you tell me if the measured Uterus to muscle uptake ratio of CC1(c2ccco2)O[C@@H]2CC3C4CCC5=CC(=O)CC[C@@H]5C4CC[C@]3(C)[C@]2(C(=O)CF)O1 (stereo not given in full) reaches 8% or more?
OUTPUT: Condition met
